Kindly state Dmax for each of the entries shown.
- ASSAY SYSTEM: HiBit-WIZ fusion protein (Homo sapiens, UniProt O95785+Q96SW2)
- Sequence (O95785 whole entry, the tested form may be a part): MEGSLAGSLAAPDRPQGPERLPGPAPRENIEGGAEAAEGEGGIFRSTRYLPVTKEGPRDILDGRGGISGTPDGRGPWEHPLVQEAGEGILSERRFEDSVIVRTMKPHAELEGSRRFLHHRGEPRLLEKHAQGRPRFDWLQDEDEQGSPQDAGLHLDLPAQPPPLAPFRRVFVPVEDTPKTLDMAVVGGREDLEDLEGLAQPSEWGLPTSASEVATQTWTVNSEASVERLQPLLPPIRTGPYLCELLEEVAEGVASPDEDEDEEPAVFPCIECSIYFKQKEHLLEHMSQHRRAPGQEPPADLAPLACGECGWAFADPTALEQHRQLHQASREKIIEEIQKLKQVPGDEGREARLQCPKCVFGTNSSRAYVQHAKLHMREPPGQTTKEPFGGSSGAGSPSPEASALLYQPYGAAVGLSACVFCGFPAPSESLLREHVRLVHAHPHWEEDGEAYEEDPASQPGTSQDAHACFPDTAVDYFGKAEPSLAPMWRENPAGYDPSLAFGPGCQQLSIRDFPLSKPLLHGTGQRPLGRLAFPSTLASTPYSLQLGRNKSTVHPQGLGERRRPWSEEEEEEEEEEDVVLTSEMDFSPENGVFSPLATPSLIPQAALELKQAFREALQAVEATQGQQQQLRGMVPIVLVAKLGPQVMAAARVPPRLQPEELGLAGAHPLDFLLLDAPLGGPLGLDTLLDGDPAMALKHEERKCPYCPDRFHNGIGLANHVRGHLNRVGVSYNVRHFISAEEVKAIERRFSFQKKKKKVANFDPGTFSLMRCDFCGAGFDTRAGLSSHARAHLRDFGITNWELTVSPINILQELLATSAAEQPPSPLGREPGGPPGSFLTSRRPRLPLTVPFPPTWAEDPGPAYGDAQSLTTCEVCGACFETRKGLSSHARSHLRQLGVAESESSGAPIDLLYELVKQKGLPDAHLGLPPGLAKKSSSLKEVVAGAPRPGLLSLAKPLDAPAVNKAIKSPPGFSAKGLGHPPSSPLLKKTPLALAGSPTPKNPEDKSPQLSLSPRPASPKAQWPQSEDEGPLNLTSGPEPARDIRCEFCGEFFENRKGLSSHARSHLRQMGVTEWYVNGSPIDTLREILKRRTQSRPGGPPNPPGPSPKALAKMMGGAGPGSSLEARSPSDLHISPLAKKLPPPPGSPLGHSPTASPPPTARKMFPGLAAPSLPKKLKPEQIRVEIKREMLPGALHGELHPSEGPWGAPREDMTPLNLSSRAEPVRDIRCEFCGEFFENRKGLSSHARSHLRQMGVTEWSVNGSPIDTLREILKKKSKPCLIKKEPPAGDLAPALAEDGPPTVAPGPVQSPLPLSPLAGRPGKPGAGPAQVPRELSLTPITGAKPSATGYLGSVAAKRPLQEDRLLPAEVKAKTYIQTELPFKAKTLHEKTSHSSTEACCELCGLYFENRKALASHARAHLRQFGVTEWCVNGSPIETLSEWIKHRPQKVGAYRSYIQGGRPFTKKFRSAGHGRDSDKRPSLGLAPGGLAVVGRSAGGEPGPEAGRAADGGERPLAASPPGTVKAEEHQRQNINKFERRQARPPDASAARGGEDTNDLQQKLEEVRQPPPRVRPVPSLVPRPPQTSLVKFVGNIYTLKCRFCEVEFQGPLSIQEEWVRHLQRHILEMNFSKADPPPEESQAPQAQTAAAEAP
- Sequence (Q96SW2 whole entry, the tested form may be a part): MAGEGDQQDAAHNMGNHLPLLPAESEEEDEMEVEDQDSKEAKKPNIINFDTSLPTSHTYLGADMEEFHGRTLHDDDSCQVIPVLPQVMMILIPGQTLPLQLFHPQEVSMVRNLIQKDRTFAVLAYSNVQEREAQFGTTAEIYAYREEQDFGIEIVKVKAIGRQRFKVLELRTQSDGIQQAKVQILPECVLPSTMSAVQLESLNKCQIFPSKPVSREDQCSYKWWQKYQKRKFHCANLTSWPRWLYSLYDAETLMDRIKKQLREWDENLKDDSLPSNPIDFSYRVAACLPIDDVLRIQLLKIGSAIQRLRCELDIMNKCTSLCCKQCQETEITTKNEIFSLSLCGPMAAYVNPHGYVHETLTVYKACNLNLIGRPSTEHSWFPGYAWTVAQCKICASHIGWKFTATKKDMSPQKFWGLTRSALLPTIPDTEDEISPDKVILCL
- Sequence (Q16531 whole entry partner, the tested form may be a part): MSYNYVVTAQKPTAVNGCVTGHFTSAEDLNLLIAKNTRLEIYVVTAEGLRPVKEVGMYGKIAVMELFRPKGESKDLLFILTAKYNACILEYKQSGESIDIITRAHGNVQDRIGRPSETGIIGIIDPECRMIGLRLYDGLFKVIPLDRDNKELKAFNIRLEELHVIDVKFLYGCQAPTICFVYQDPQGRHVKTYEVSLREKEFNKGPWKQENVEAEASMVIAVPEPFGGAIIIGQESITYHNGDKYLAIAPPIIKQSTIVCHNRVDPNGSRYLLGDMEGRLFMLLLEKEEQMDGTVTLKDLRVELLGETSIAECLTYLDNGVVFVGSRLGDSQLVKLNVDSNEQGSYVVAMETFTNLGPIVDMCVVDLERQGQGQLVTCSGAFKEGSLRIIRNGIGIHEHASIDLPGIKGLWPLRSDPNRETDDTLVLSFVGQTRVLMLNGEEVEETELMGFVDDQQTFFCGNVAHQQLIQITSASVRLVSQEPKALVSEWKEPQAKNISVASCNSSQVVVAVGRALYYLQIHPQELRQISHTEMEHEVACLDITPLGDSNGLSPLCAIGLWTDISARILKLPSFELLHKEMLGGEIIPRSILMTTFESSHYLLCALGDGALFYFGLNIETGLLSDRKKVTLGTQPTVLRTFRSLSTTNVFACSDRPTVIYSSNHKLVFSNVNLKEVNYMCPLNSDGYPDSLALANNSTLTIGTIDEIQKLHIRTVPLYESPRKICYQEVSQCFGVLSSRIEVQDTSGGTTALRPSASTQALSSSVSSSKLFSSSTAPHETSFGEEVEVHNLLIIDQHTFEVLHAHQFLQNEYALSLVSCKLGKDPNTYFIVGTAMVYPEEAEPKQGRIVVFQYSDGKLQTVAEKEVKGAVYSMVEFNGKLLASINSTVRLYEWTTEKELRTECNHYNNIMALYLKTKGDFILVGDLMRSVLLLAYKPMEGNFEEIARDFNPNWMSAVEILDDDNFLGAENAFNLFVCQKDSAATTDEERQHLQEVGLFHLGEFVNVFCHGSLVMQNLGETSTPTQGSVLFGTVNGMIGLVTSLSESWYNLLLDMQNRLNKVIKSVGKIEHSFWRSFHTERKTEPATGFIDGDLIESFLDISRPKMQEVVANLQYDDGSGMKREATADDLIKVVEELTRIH
- PROCEDURE TEXT: Quantification of WIZ protein levels in HiBit tag fusion protein assay (WIZ HiBit assay in 293T cells)
- Assay type: cell-based
- Design: dose or concentration left out as unconfirmed
- ASSAY CONTEXT: HEK-293T, 100 minus Amax; 293T cells; read-out: % degradation of WIZ (100-Amax)
Remember to follow the number with its unit.

Asked: Could you share which Dmax value was measured for O=C1CCC(N2Cc3cc(OC[C@@H]4CCCCN4Cc4cccn4S(=O)(=O)c4ccccc4)ccc3C2=O)C(=O)N1 (stereo partly shown) [Compound I-50f] ?
Given back: 82.6%

Asked: Could you share which Dmax value was measured for N#Cc1ccn2cc(CN3CCCC[C@@H]3COc3ccc4c(c3)CN(C3CCC(=O)NC3=O)C4=O)nc2c1 (stereo partly shown) [Compound I-50dt] ?
Given back: 67%

Asked: Could you share which Dmax value was measured for O=C1CCC(N2Cc3cc(OC[C@@H]4CCCCN4C(=O)c4cccc(N5CCOCC5)n4)ccc3C2=O)C(=O)N1 (stereo partly shown) [Compound I-72ae] ?
Given back: 14.7%

Asked: Could you share which Dmax value was measured for Cn1cncc1CN1CCCC[C@H]1COc1ccc2c(c1)CN(C1CCC(=O)NC1=O)C2=O (stereo partly shown) [Compound I-50ag] ?
Given back: 62.8%

Asked: Could you share which Dmax value was measured for O=C1CCC(N2Cc3cc(OC[C@H]4CCCCN4Cc4ccc(N5CCN(C6CC6)CC5)cc4)ccc3C2=O)C(=O)N1 (stereo partly shown) ?
Given back: 81.1%

Asked: Could you share which Dmax value was measured for Cc1cc(-n2c(C)cc(C(=O)N3CCCC[C@H]3COc3ccc4c(c3)CN(C3CCC(=O)NC3=O)C4=O)c2C)no1 (stereo partly shown) [Compound I-72iu] ?
Given back: 71.7%

Asked: Could you share which Dmax value was measured for CC(C)(C#N)c1cc(C(=O)N2CCCC[C@H]2COc2ccc3c(c2)CN(C2CCC(=O)NC2=O)C3=O)ccn1 (stereo partly shown) [Compound I-72be] ?
Given back: 11.8%

Origin of measurements: patent US11566022B2
